targetOrSystem: ICAM-1 binding to immobilized Mac-1 (Homo sapiens, UniProt P05107+P11215)
Construct: made in house; host or cells: transfected 293 cells (Mac-1)
Sequence (P05107 23-769, other chains not shown): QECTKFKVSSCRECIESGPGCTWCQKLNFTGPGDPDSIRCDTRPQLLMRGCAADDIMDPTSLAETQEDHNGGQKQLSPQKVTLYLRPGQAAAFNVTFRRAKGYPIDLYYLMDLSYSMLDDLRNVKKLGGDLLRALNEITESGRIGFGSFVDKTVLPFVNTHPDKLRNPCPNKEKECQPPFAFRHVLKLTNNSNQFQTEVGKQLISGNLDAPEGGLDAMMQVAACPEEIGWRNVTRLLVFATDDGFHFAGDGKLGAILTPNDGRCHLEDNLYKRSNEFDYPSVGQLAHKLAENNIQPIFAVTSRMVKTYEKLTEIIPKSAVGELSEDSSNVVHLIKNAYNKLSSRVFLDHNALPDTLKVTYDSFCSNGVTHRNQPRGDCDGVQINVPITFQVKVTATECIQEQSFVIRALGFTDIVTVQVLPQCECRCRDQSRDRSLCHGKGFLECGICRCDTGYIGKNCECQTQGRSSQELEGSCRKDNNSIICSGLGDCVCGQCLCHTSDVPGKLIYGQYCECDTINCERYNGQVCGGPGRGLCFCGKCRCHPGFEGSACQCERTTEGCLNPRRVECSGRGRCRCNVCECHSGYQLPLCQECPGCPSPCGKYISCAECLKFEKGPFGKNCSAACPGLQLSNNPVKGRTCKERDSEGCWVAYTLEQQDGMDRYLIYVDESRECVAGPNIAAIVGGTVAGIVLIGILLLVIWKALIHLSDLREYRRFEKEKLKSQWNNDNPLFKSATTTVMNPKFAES
experiment: Mac-1/ICAM-1 screening assay (solid-phase ELISA)
statedConditions: read-out: Mac-1/ICAM-1 Protein-Protein Assay IC50
metricName: IC50

Record excerpt, results attached:
molecularString | targetOrSystem | metricName | result
COc1cscc1C(=O)NC[C@H](NC(=O)c1ccc(C(=O)NCc2cccc(O)c2)cc1Cl)C(=O)O | ICAM-1 binding to immobilized Mac-1 (Homo sapiens, UniProt P05107+P11215) | IC50 | 23 nM
CSCC[C@H](N)C(=O)NC[C@H](NC(=O)c1ccc(C(=O)NCc2cccc(O)c2)cc1Cl)C(=O)O | ICAM-1 binding to immobilized Mac-1 (Homo sapiens, UniProt P05107+P11215) | IC50 | 38 nM
Cc1ccsc1C(=O)NC[C@H](NC(=O)c1ccc(C(=O)NCc2cccc(O)c2)cc1Cl)C(=O)O | ICAM-1 binding to immobilized Mac-1 (Homo sapiens, UniProt P05107+P11215) | IC50 | 13 nM

Turning to the following compound.
Given O=C(NCc1cccc(O)c1)c1ccc(C(=O)N[C@@H](CNC(=O)c2ccccc2[N+](=O)[O-])C(=O)O)c(Cl)c1 , state its recorded IC50.
47 nM

###

targetOrSystem: LFA-1 binding to immobilized ICAM-1 (Homo sapiens, UniProt P05107+P20701)
Construct: made in house; host or cells: transfected 293 cells (LFA-1)
Sequence (P20701 26-1170): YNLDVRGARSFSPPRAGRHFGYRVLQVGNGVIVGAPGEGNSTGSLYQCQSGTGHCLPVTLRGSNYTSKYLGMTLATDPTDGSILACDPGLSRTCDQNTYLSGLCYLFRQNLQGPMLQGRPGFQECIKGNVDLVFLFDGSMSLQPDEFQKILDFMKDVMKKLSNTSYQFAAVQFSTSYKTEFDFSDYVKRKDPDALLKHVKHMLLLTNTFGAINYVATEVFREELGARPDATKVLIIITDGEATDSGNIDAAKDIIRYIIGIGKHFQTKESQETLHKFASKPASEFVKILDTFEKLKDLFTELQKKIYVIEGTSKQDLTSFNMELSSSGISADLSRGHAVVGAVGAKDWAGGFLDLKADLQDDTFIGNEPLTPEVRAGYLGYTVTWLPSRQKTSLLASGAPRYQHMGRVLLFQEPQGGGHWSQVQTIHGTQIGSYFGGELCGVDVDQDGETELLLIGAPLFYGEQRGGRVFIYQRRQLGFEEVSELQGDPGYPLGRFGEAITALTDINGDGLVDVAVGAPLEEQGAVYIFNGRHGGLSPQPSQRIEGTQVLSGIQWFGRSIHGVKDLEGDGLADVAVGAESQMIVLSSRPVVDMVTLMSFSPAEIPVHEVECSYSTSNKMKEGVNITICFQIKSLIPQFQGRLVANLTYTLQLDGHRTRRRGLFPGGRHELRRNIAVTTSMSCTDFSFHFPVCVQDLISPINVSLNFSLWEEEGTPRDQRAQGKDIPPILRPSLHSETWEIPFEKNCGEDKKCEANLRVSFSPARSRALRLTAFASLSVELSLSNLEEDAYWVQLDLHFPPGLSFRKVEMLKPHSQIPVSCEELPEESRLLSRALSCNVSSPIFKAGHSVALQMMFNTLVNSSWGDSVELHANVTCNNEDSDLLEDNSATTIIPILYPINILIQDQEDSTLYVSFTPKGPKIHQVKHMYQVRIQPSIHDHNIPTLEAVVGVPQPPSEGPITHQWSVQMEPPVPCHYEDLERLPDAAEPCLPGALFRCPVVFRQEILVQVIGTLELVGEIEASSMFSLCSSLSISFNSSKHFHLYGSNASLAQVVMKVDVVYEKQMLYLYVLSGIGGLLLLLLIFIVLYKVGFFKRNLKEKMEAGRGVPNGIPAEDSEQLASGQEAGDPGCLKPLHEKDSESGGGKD
Sequence (P05107 23-769): as the sequence (P05107 23-769, other chains not shown) above
experiment: LFA-1/ICAM-1 protein-protein assay (solid-phase ELISA)
statedConditions: read-out: LFA-1/ICAM-1 Protein-Protein Assay IC50
Assignment: determine reported pIC50 for the given molecules.
Numbers only, as −log10 of the molar value.

The examples below pair each entry with its known result.
molecularString | metricName | numericReadout
Cc1noc(C)c1C(=O)NC[C@H](NC(=O)c1ccc(C(=O)NCc2cccc(O)c2)cc1Cl)C(=O)O | pIC50 | 8.11
O=C(NCc1cccc(O)c1)c1ccc(C(=O)N[C@@H](CNC(=O)c2ccsc2)C(=O)O)c(Cl)c1 | pIC50 | 9.00
O=C(NCc1cccc(O)c1)c1ccc(C(=O)N[C@@H](CNC(=O)C2(c3ccccc3)CCCC2)C(=O)O)c(Cl)c1 | pIC50 | 8.80
NC1(C(=O)NC[C@H](NC(=O)c2ccc(C(=O)NCc3cccc(O)c3)cc2Cl)C(=O)O)CCCC1 | pIC50 | 8.38
O=C(NCc1cccc(O)c1)c1cc(Cl)c(C(=O)N[C@@H](CNC(=O)c2cccs2)C(=O)O)c(Cl)c1 | pIC50 | 8.80
O=C(NCc1cccc(O)c1)c1ccc(C(=O)N[C@@H](CNC(=O)c2nccc3ccccc23)C(=O)O)c(Cl)c1 | pIC50 | 9.22
O=C(NCc1ccc(C(=O)N[C@@H](CNC(=O)c2ccccc2)C(=O)O)c(Cl)c1)c1ccc2cc[nH]c2c1 | pIC50 | 8.07
O=C(NCc1cccc(O)c1)c1ccc(C(=O)N[C@@H](CNC(=O)c2ccc3ccccc3c2)C(=O)O)c(Cl)c1 | pIC50 | 8.44
O=C(NCc1cccc(O)c1)c1ccc(C(=O)N[C@@H](CNC(=O)c2sccc2Cl)C(=O)O)c(Cl)c1 | pIC50 | 9.00
O=C(NCc1cccc(O)c1)c1ccc(C(=O)N[C@@H](CNC(=O)c2cccc(C(F)(F)F)c2)C(=O)O)c(Cl)c1 | pIC50 | 8.59

I have 3 molecules here; please give me pIC50 for each one.
1. CC(=O)Oc1ccccc1C(=O)NC[C@H](NC(=O)c1ccc(C(=O)NCc2cccc(O)c2)cc1Cl)C(=O)O
2. O=C(NC[C@H](NC(=O)c1c(F)cccc1Cl)C(=O)O)c1ccc(Br)s1
3. O=C(Cc1ccccc1)NC[C@H](NC(=O)c1c(Cl)cccc1Cl)C(=O)O

[8.44, 7.62, 7.38]

Hello, I am looking for reported pIC50 with LFA-1 binding to immobilized ICAM-1 (Homo sapiens, UniProt P05107+P20701) for COc1cccc(C(=O)NC[C@H](NC(=O)c2ccc(C(=O)NCc3cccc(O)c3)cc2Cl)C(=O)O)c1 . Could you help?
8.92

###

Tested on: cell-surface Mac-1 adhesion to immobilized fibrinogen (HL-60 cells)
experiment: Mac-1/Fibrinogen cell-based screening assay
Design: species or system human
statedConditions: Homo sapiens, HL-60, HL-60 cells; read-out: Mac-1/Fgn Cell based Assay IC50
For each record, write down the corresponding pIC50.
Give bare numbers, as −log10 of the molar value.

Recorded pIC50, per entry:
compound | pIC50
O=C(NCc1cccc(O)c1)c1cc(Cl)c(C(=O)N[C@@H](CNC(=O)c2cc(F)cc(F)c2)C(=O)O)c(Cl)c1 [Example 344] | 8.32
O=C(CC1CCCC1)NC[C@H](NC(=O)c1ccc(C(=O)NCc2cccc(O)c2)cc1Cl)C(=O)O [Example 77] | 6.51
Cc1cc(C(=O)NCc2cccc(O)c2)cc(Cl)c1C(=O)N[C@@H](CNC(=O)c1cc(F)cc(F)c1)C(=O)O [Example 340] | 8.21
O=C(NCc1cccc(O)c1)c1ccc(C(=O)N[C@@H](CNC(=O)C2CCNCC2)C(=O)O)c(Cl)c1 [Example 262] | 7.31
Cc1ccsc1C(=O)NC[C@H](NC(=O)c1c(Cl)cc(C(=O)NCc2cccc(O)c2)cc1Cl)C(=O)O [Example 357] | 7.64

Provide the reported pIC50 of each entry below, same order.
1. O=C(NCc1cccc(O)c1)c1ccc(C(=O)N[C@@H](CNC(=O)c2cc(F)cc(C(F)(F)F)c2)C(=O)O)c(Cl)c1 [Example 260]
2. COc1cscc1C(=O)NC[C@H](NC(=O)c1ccc(C(=O)NCc2cccc(O)c2)cc1Cl)C(=O)O [Example 257]
3. CCCC[C@H](N)C(=O)NC[C@H](NC(=O)c1ccc(C(=O)NCc2cccc(O)c2)cc1Cl)C(=O)O [Example 278]
4. O=C(NCc1cccc(O)c1)c1cc(Cl)c(C(=O)N[C@@H](CNC(=O)c2cc(O)cc(O)c2)C(=O)O)c(Cl)c1 [Example 345]
5. Cc1cccc(C(=O)NC[C@H](NC(=O)c2c(Cl)cc(C(=O)NCc3cccc(O)c3)cc2Cl)C(=O)O)c1 [Example 352]
6. CN[C@@H](C)C(=O)NC[C@H](NC(=O)c1ccc(C(=O)NCc2cccc(O)c2)cc1Cl)C(=O)O [Example 279]

1. 6.48
2. 7.06
3. 6.51
4. 9.52
5. 7.55
6. 6.43

###

targetOrSystem: LFA-1 binding to immobilized ICAM-1 (Homo sapiens, UniProt P05107+P20701)
Construct: made in house; host or cells: transfected 293 cells (LFA-1)
experiment: LFA-1/ICAM-1 protein-protein assay (solid-phase ELISA)
statedConditions: read-out: LFA-1/ICAM-1 Protein-Protein Assay IC50
Protocol: (a) LFA-1/ICAM-1 screening test: LFA-1/ICAM-1 antagonist activity, defined as the ability of compounds of the invention to block LFA-1 binding to immobilized ICAM-1, was quantitated using a solid-phase ELISA. Typically, fusion protein consisting of the entire extracellular domain of human ICAM-1 and the Fc domain of human IgG (5dICAM-Ig) was coated onto 96-well microtiter plates (0.15 μg in 100 μL PBS) overnight at 4° C. […] The plates were then read at 450 nm. […]
metricName: IC50 (nM)
Give bare numbers, in nM.

// solved cases for IC50 follow
molecularString | IC50, nM
O=C(NCc1cccc(O)c1)c1ccc(C(=O)N[C@@H](CNC(=O)c2ccccc2Oc2ccccc2)C(=O)O)c(Cl)c1 | 6.6
O=C(NCc1cccc2[nH]ncc12)c1ccc(C(=O)N[C@@H](CNC(=O)c2cccs2)C(=O)O)c(Cl)c1 | 1.8
O=C(NCc1cccc(O)c1)c1ccc(C(=O)N[C@@H](CNC(=O)c2ccccn2)C(=O)O)c(Cl)c1 | 1
O=C(NCc1cccc(O)c1)c1ccc(C(=O)N[C@@H](CNC(=O)c2ccc(Br)s2)C(=O)O)c(Cl)c1 | 0.7
O=C(Cc1ccc2ccccc2c1)NC[C@H](NC(=O)c1ccc(C(=O)NCc2cccc(O)c2)cc1Cl)C(=O)O | 4.8

Suppose we examine the compound CC(C)(C)C(=O)NC[C@H](NC(=O)c1ccc(C(=O)NCc2cccc(O)c2)cc1Cl)C(=O)O ; what IC50 value has been reported?
2.1

###

Test system: cell-surface Mac-1 adhesion to immobilized fibrinogen (HL-60 cells)
experiment: Mac-1/Fibrinogen cell-based screening assay
Design: species or system human
statedConditions: Homo sapiens, HL-60, HL-60 cells; read-out: Mac-1/Fgn Cell based Assay IC50
Provide the recorded IC50 for the entries that follow.
Give bare numbers, in nM.

molecularString | IC50, nM
COc1ccc(C(=O)NC[C@H](NC(=O)c2c(Cl)cc(C(=O)NCc3cccc(O)c3)cc2Cl)C(=O)O)cc1O | 3

Here are 3 compounds. What values of IC50 were reported for them?
1. O=C(NCc1cccc(O)c1)c1ccc(C(=O)N[C@@H](CNC(=O)c2cccc3ccccc23)C(=O)O)c(Cl)c1
2. Cc1cc(C(=O)NCc2cccc(O)c2)cc(C)c1C(=O)N[C@@H](CNC(=O)c1ccsc1)C(=O)O
3. O=C(NCc1cccc(O)c1)c1ccc(C(=O)N[C@@H](CNC(=O)c2sccc2Br)C(=O)O)c(Cl)c1

[125, 5.4, 58]
